// data source = patent US11466012B2

Test system: PANC-1 epithelioid carcinoma of the pancreas cell line bearing KRas^G12D oncogenic mutation
Test name: Cell proliferation inhibition (MTS), PANC-1
Type: cell-based
Experimental setup: Homo sapiens, 72 h incubation, MTS, compounds 1-53, median from experimental results
pIC50: −log10 of the molar value.
Measured attribute: pIC50

P. Cc1ccc(C2c3cc(OCCc4cccc(C(N)=O)c4)c(C(N)=O)cc3CCN2C(=O)NCc2cocn2)c(C)c1 (stereo not shown)
Q. Cc1ccc(C2c3cc(OCCc4cccnc4)c(C(N)=O)cc3CCN2C(=O)NCc2cocn2)c(C)c1 (stereo not shown)
R. COc1cc2c(cc1OCCc1cccc(O)c1)C(c1ccc(C)cc1Cl)N(C(=O)NCc1ccncc1)CC2 (stereo not shown)
S. C=CC(=O)Nc1cc2c(cc1OCCc1cccnc1)C(c1ccc(C)cc1C)N(C(=O)NCc1cocn1)CC2 (stereo not shown)
[ask] Could you please sort these 4 entries by pIC50 from high to low? Sort the labels as requested; that list is your answer.
[reply] Q, S, P, R
